Tested on: ECO UFR39
procedure.text: MIC, broth microdilution (CLSI), substance alone or ATB combined with compound at 4 or 8 μg/mL
Type: cell-based, E. coli
setup.conditions: ECO UFR39; with Example 15 at 4 μg/ml
Measured MIC ATB combined with Example 15 @4 μgml, listed per entry.
reported.endpoint: MIC ATB combined with Example 15 @4 μgml

CC1(C)S[C@@H]2[C@H](NC(=O)[C@H](N)c3ccc(O)cc3)C(=O)N2[C@H]1C(=O)O [AMX, Amoxicillin, reference compound]	<0.031 µg/mL
C=CC1=C(C(=O)O)N2C(=O)[C@@H](NC(=O)/C(=N\OCC(=O)O)c3csc(N)n3)[C@H]2SC1 [FIX, Cefixime, reference compound]	<0.031 µg/mL
NCC[C@H](O)C(=O)N[C@@H]1C[C@H](N)[C@@H](O[C@H]2O[C@H](CN)[C@@H](O)[C@H](O)[C@H]2O)[C@H](O)[C@H]1O[C@H]1O[C@H](CO)[C@@H](O)[C@H](N)[C@H]1O [AN, Amikacin, reference compound]	<0.031 µg/mL

###

Test system: SAU 29213
procedure.text: MIC, broth microdilution (CLSI), substance alone or ATB combined with compound at 4 or 8 μg/mL
Format: cell-based, S. aureus
setup.conditions: Staphylococcus aureus; antibiotic alone; SAU 29213; read-out: MIC ATB alone
Measured MIC, listed per entry.
reported.endpoint: MIC

CO/N=C(\C(=O)N[C@@H]1C(=O)N2C(C(=O)[O-])=C(C[N+]3(C)CCCC3)CS[C@H]12)c1csc(N)n1 [FEP, Cefepime]	4 µg/mL
CCN1CCN(C(=O)N[C@@H](C(=O)N[C@@H]2C(=O)N3[C@@H]2SC(C)(C)[C@@H]3C(=O)O)c2ccccc2)C(=O)C1=O [PIP, Piperacillin, reference compound]	8 µg/mL
C[C@@H]1O[C@@H]1P(=O)(O)O [FOS, Fosfomycin, reference compound]	2 µg/mL
C[C@@H](O)[C@H]1C(=O)N2C(C(=O)O)=C(S[C@@H]3CN[C@H](C(=O)N(C)C)C3)[C@H](C)[C@H]12	0.125 µg/mL

###

Test system: ECO UFR39
procedure.text: MIC, broth microdilution (CLSI), substance alone or ATB combined with compound at 4 or 8 μg/mL
Assay type: cell-based, E. coli
setup.conditions: ECO UFR39; with Example 13 at 8 μg/ml
reported.endpoint: MIC ATB combined with Example 13 @8 μg/ml

NCC[C@H](O)C(=O)N[C@@H]1C[C@H](N)[C@@H](O[C@H]2O[C@H](CN)[C@@H](O)[C@H](O)[C@H]2O)[C@H](O)[C@H]1O[C@H]1O[C@H](CO)[C@@H](O)[C@H](N)[C@H]1O [AN, Amikacin, reference compound]	0.063 µg/mL
CO/N=C(\C(=O)N[C@@H]1C(=O)N2C(C(=O)O)=C(COC(C)=O)CS[C@H]12)c1csc(N)n1	<0.031 µg/mL
CC1(C)S[C@@H]2[C@H](NC(=O)[C@H](N)c3ccc(O)cc3)C(=O)N2[C@H]1C(=O)O [AMX, Amoxicillin, reference compound]	<0.031 µg/mL
CO/N=C(\C(=O)N[C@@H]1C(=O)N2C(C(=O)O)=C(COC(N)=O)CS[C@H]12)c1ccco1 [FUR, Cefuroxime, reference compound]	<0.031 µg/mL
COCC1=C(C(=O)O)N2C(=O)[C@@H](NC(=O)/C(=N\OC)c3csc(N)n3)[C@H]2SC1 [POD, Cefpodoxime, reference compound]	<0.031 µg/mL

###

Measured MIC ATB combined with Example 9 @4 μg/ml, listed per entry.
Test system: PAE UFR90
procedure.text: MIC, broth microdilution (CLSI), substance alone or ATB combined with compound at 4 or 8 μg/mL
Type: cell-based, P. aeruginosa
setup.conditions: PAE UFR90; with Example 9 @4 μg/ml
reported.endpoint: MIC ATB combined with Example 9 @4 μg/ml

CN(C)c1cc(NC(=O)CNC(C)(C)C)c(O)c2c1C[C@H]1C[C@H]3[C@H](N(C)C)C(O)=C(C(N)=O)C(=O)[C@@]3(O)C(O)=C1C2=O	16 µg/mL
CC1(C)S[C@@H]2[C@H](NC(=O)[C@H](N)c3ccc(O)cc3)C(=O)N2[C@H]1C(=O)O [AMX, Amoxicillin, reference compound]	>32 µg/mL
CO/N=C(\C(=O)N[C@@H]1C(=O)N2C(C(=O)O)=C(COC(N)=O)CS[C@H]12)c1ccco1 [FUR, Cefuroxime, reference compound]	>32 µg/mL
C=CC1=C(C(=O)O)N2C(=O)[C@@H](NC(=O)/C(=N\OCC(=O)O)c3csc(N)n3)[C@H]2SC1 [FIX, Cefixime, reference compound]	>32 µg/mL
NCC[C@H](O)C(=O)N[C@@H]1C[C@H](N)[C@@H](O[C@H]2O[C@H](CN)[C@@H](O)[C@H](O)[C@H]2O)[C@H](O)[C@H]1O[C@H]1O[C@H](CO)[C@@H](O)[C@H](N)[C@H]1O [AN, Amikacin, reference compound]	2 µg/mL
CO/N=C(\C(=O)N[C@@H]1C(=O)N2C(C(=O)[O-])=C(C[n+]3cccc4c3CCC4)CS[C@H]12)c1csc(N)n1	8 µg/mL
C[C@@H](O)[C@H]1C(=O)N2C(C(=O)O)=C(SCCN=CN)C[C@H]12	1 µg/mL

###

System: SAU 29213
procedure.text: MIC, broth microdilution (CLSI), substance alone or ATB combined with compound at 4 or 8 μg/mL
Type: cell-based, S. aureus
setup.conditions: SAU 29213; with Example 9 at 4 μg/ml
reported.endpoint: MIC ATB combined with Example 9 @4 μg/ml

C[C@@H](O)[C@H]1C(=O)N2C(C(=O)O)=C(SCCN=CN)C[C@H]12 [IMI]	<0.031 µg/mL
C=CC1=C(C(=O)O)N2C(=O)[C@@H](NC(=O)/C(=N\OCC(=O)O)c3csc(N)n3)[C@H]2SC1 [FIX, Cefixime, reference compound]	<=0.031 μg/mL
COCC1=C(C(=O)O)N2C(=O)[C@@H](NC(=O)/C(=N\OC)c3csc(N)n3)[C@H]2SC1 [POD, Cefpodoxime, reference compound]	<=0.031 μg/mL
CO/N=C(\C(=O)N[C@@H]1C(=O)N2C(C(=O)O)=C(COC(N)=O)CS[C@H]12)c1ccco1 [FUR, Cefuroxime, reference compound]	<0.031 µg/mL
NCC[C@H](O)C(=O)N[C@@H]1C[C@H](N)[C@@H](O[C@H]2O[C@H](CN)[C@@H](O)[C@H](O)[C@H]2O)[C@H](O)[C@H]1O[C@H]1O[C@H](CO)[C@@H](O)[C@H](N)[C@H]1O [AN, Amikacin, reference compound]	<0.031 µg/mL
CN(C)c1cc(NC(=O)CNC(C)(C)C)c(O)c2c1C[C@H]1C[C@H]3[C@H](N(C)C)C(O)=C(C(N)=O)C(=O)[C@@]3(O)C(O)=C1C2=O [TGC]	<0.031 µg/mL
CC1(C)S[C@@H]2[C@H](NC(=O)[C@H](N)c3ccc(O)cc3)C(=O)N2[C@H]1C(=O)O [AMX, Amoxicillin, reference compound]	<0.031 µg/mL

###

Tested on: ECO 190317
procedure.text: Fractional Inhibitory Concentration Index, checkerboard assay
Type: cell-based, E. coli
setup.conditions: compound +FEP
Label Yes for high-side FIC index min (at or above 0.2) and No for low-side FIC index min (below it).

NC[C@@H]1C(c2ncco2)=C[C@@H]2CN1C(=O)N2OS(=O)(=O)[O-].O=C(O)C(F)(F)F.[Na+]	Yes
NCCn1c2c(sc1=O)C1CN(C2)C(=O)N1OS(=O)(=O)[O-].[Na+] (stereo not shown)	No
NC[C@@H]1CC(=NOCC(N)=O)[C@@H]2CN1C(=O)N2OS(=O)(=O)[O-].O=C(O)C(F)(F)F.[Na+]	Yes
O=C1N2CC(c3cccnc3)=CC(C2)N1OS(=O)(=O)[O-].[Na+] (stereo not shown)	No
NC[C@H]1C=C(c2cnco2)[C@@H]2CN1C(=O)N2OS(=O)(=O)[O-].O=C(O)C(F)(F)F.[Na+] (relative stereo)	Yes
O=C1N2CC(c3ncco3)=C[C@H](C2)N1OS(=O)(=O)[O-].[Na+]	No
NCCON=C1C[C@@H](C(N)=O)N2C[C@@H]1N(OS(=O)(=O)[O-])C2=O.[Na+]	No

###

Measured MIC, listed per entry.
Tested on: KPN UFR42
procedure.text: MIC, broth microdilution (CLSI), substance alone or ATB combined with compound at 4 or 8 μg/mL
Assay type: cell-based, K. pneumoniae
setup.conditions: Klebsiella pneumoniae; substance alone; KPN UFR42; read-out: MIC
reported.endpoint: MIC (mg/L)

O=C1N2CC(n3cncn3)=CC(C2)N1OS(=O)(=O)[O-].[Na+] (stereo not shown)	8
NCCn1c2c(sc1=O)C1CN(C2)C(=O)N1OS(=O)(=O)[O-].[Na+] (stereo not shown)	16
O=C1N2CC(c3cccnc3)=CC(C2)N1OS(=O)(=O)[O-].[Na+] (stereo not shown)	16
O=C1N2CC(n3cccn3)=C[C@H](C2)N1OS(=O)(=O)[O-].[Na+]	4
